The reported numbers originate from PubChem BioAssay.

METHOD DESCRIPTION: blockers of RIG-like receptor reporter activation – cell-based, Sendai virus stimulus, luciferase, 10K MLSCN set, TLR/RLR signaling modifier project, primary screen (AID 602276);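 also: firefly luciferase from ISG56 promoter only with Renilla not read in this screen; 0% = Sendai virus plus DMSO and 100% = medium plus DMSO without virus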
SETTINGS: HEK293 RL24 IRF3 luciferase reporter, at 10 µM, stronger effect = higher value
OUTCOME MEASURE: inhibition (%)
Give just the numeric value; % need not be written.

INSERT INTO results (compound, measurement_units, value_observed) VALUES
  ('Cc1ccc(O)c(-c2cc(C(=O)Nc3ccc(S(=O)(=O)N4CC(C)OC(C)C4)cc3)[nH]n2)c1 (stereo not given)', '%', 22.4),
  ('CC(=O)Nc1ccc(S(=O)(=O)N2CCSC2c2ccccc2)cc1 (stereo not given)', '%', 18.3),
  ('CCOC(=O)c1ccc(NC(=O)CCNc2c(N3CCCC3)c(=O)c2=O)cc1', '%', 4.44);

Entry COc1ccc(C)cc1S(=O)(=O)N(C)CC(=O)Nc1ccc2c(c1)OCO2 , inhibition reported as 12.3

Entry CC(=O)Nc1ccccc1-c1nc2ccc(C(=O)N3CCN(c4ccccc4)CC3)cc2[nH]c1=O , inhibition reported as 5.92

Entry Cc1ccccc1Cn1ccc(NC(=O)c2cnn3c(C(F)(F)F)cc(-c4ccco4)nc23)n1 , inhibition reported as 19.2

Entry CCn1c(SCC(=O)N2CCN(c3ccc(Cl)cc3)CC2)nc2ccccc2c1=O , inhibition reported as -8.17

Entry COc1cc(NC(=O)c2ccco2)c(OC)cc1NC(=O)CCC(=O)Nc1cc(C)cc(C)c1 , inhibition reported as 16

Entry NCC(O)COc1ccc2c(c1)OCO2 (stereo not given) , inhibition reported as -1.42

Entry Cc1csc2nc(CSc3nc4ccccc4o3)c(Br)n12 , inhibition reported as -40

====

METHOD DESCRIPTION: endothelial E-selectin expression blockers – imaging, HUVEC, immunofluorescence, MLSMR starter and 10KST1 sets, primary screen (AID 487);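 also: 100% = median nuclei count of all wells on the same plate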
SETTINGS: HUVEC TNFalpha-induced E-selectin immunofluorescence imaging, at 2 µM; measured here: cell number, toxicity
nuclei count: recorded values
Give just the numeric value; % need not be written.

INSERT INTO assay_data (compound, value_observed) VALUES
  ('Cc1ccc(C)c(OCC(O)CN2C(C)CCCC2C)c1 (stereo not given)', 117),
  ('Cc1nnc(SCCn2c(N3CCC(Cc4ccccc4)CC3)nc3c2c(=O)[nH]c(=O)n3C)s1', 104),
  ('CC1=C(C(=O)OC(C)C)C(C2CC=CCC2)NC(=O)N1 (stereo not given)', 98.9),
  ('CC(c1ccco1)N(C(=O)c1ccc(S(=O)(=O)N2CCCCC2)cc1)c1ccccn1 (stereo not given)', 105);

Entry CCn1c(SCc2nc(-c3cccs3)no2)nnc1-c1c[nH]c2ccccc12 , nuclei count reported as 102

====

nuclei count: recorded values
METHOD DESCRIPTION: reduction of polyQ htt aggregates in cells – imaging, exon1htt(103Q)mCFP cells, high-content imaging, primary screen (AID 483);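 also: compound exposure lasted 3 days before fixation; percent of the per-plate median nuclei count of sample wells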
SETTINGS: exon1htt(103Q)mCFP cell line, aggregate imaging, at 2 µM; measured here: cell count, toxicity
Give just the numeric value; % need not be written.

Consider the following illustrative entries.
INSERT INTO measurements (molecule, value_observed) VALUES
  ('O=C1c2ccccc2-c2ccc(C(=O)N3CCOCC3)cc21', 81.1),
  ('COc1ccccc1NC(=O)CSc1nnc(-c2ccncc2)o1', 110),
  ('COCCNC(=O)C(c1cccs1)N(C(=O)Cn1nnc2ccccc21)c1ccccc1 (stereo unspecified)', 98.9);

Entry O=c1[nH]c2cc3c(cc2cc1C(c1nnnn1Cc1ccccc1)N1CCCc2ccccc21)OCO3 (stereo unspecified) , nuclei count reported as 100

Entry O=C(CSC1=NCCS1)NCc1ccco1 , nuclei count reported as 87.2

Entry Nc1scc(-c2ccncc2)c1Cl , nuclei count reported as 94.4

Entry CCOC(=O)c1ccc(NC(=O)CC2SC(=NC)N(C)C2=O)cc1 (stereo unspecified) , nuclei count reported as 103

Entry Cc1cc(OCC(=O)N2CCOCC2)cc2oc(=O)c3ccccc3c12 , nuclei count reported as 90.7

Entry COC(=O)CCC(=O)Nc1ccc(OC)cc1 , nuclei count reported as 108

Entry COCCNC(=O)C(c1ccc(C)o1)N(Cc1cccs1)C(=O)c1snc(C(N)=O)c1N (stereo unspecified) , nuclei count reported as 96.3

Entry Cc1onc(-c2ccccc2)c1C(N)=O , nuclei count reported as 98.5

Entry CCOC(=O)CSc1nnc(CNC(=O)c2ccc(S(=O)(=O)N3CCCC3)cc2)n1C , nuclei count reported as 96.9

Entry COc1ccc(C(=O)CSc2nnc(CNc3ccc(C)cc3C)o2)cc1 , nuclei count reported as 101

Entry CCn1c(SCC(=O)N2c3ccccc3CCc3ccccc32)nc2c1c(=O)n(C)c(=O)n2C , nuclei count reported as 80.2

Entry Cc1ccc(C)c(N2CCN(C(=O)c3ccc(CS(=O)(=O)c4ccccc4C)o3)CC2)c1 , nuclei count reported as 95.8

Entry CC1(C)CC(=O)C(C=NCc2ccc3c(c2)OCO3)=C(O)C1 , nuclei count reported as 104

Entry Cc1cc(C)n2nc(SCc3nc4ccccc4[nH]3)nc2n1 , nuclei count reported as 103

Entry CCOC(=O)c1ccc(NS(=O)C23CC4CC(CC(C4)C2)C3)cc1 (stereo unspecified) , nuclei count reported as 111

Entry C=CCOC(=O)C1=C(C)NC(=O)NC1c1cn(-c2ccccc2)nc1-c1cccs1 (stereo unspecified) , nuclei count reported as 87.3

Entry O=C(CSc1nnc(-c2ccccc2)o1)N1CCc2ccccc2C1 , nuclei count reported as 101

Entry CN(c1ccccc1C(=O)NCC1CCCO1)S(C)(=O)=O (stereo unspecified) , nuclei count reported as 94.8

Entry O=C(O)c1ccc2noc(-c3ccccc3)c2c1 , nuclei count reported as 103

Entry O=C1C2C3C=CC(C3)C2C(=O)N1Cc1ccccc1 (stereo unspecified) , nuclei count reported as 102

Entry O=C(Cn1ncc2c1-c1ccccc1OC2)Nc1ccc(Cl)cn1 , nuclei count reported as 114

Entry O=C(NC1CCCCCC1)C1CCCN(S(=O)(=O)c2cccs2)C1 (stereo unspecified) , nuclei count reported as 109
